The following compounds each carry a recorded Ki for Carbonic anhydrase 1 (Homo sapiens, UniProt P00915).

| Molecular String | Ki / µM |
| --- | --- |
| CC(C)[C@H](C(=O)NO)N(CC(=O)NCCc1ccc(S(N)(=O)=O)cc1)S(=O)(=O)c1ccc(Oc2ccccc2)cc1 | 0.73 |
| NS(=O)(=O)c1ccc(CCNC(=O)CN(CC(=O)O)S(=O)(=O)c2ccc(-c3ccccc3)cc2)cc1 | 0.116 |
| NS(=O)(=O)c1ccc(CCNC(=O)CN(CC(=O)NO)Cc2ccccc2)cc1 | 2.34 |

====

Target protein (sequence): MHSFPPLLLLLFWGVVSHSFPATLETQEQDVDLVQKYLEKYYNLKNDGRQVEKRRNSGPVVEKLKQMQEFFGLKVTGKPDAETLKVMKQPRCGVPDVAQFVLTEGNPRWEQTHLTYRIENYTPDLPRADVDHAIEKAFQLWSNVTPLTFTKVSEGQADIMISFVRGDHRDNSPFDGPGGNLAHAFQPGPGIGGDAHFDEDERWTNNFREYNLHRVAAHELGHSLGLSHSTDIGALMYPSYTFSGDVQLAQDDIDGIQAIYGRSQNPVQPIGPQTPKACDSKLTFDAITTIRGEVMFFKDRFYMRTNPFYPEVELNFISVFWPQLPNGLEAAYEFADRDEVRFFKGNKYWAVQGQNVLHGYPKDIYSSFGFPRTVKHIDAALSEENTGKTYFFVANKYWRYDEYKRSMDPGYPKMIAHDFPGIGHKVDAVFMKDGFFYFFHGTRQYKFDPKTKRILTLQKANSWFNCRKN
Consider the cut-off 200 nM. If the recorded IC50 is strictly smaller, the label is Y; if not, the label is N.

| Molecular String | Label Class |
| --- | --- |
| CC(C)[C@H](C(=O)NO)N(CC(=O)NCCc1ccc(S(N)(=O)=O)cc1)S(=O)(=O)c1ccc(Oc2ccccc2)cc1 | Y |
| CC(C)[C@H](C(=O)NO)N(CC(=O)O)S(=O)(=O)c1ccc(Oc2ccccc2)cc1 | Y |
| COc1ccc(S(=O)(=O)N(CC(=O)O)[C@@H](C(=O)NO)C(C)C)cc1 | N |
| CC(C)[C@H](C(=O)NO)N(CC(=O)O)S(=O)(=O)c1ccc(-c2ccccc2)cc1 | N |
| COc1ccc(S(=O)(=O)N(CC(=O)NO)CC(=O)NCCc2ccc(S(N)(=O)=O)cc2)cc1 | N |
| NS(=O)(=O)c1ccc(CCNC(=O)CN(CC(=O)NO)S(=O)(=O)c2ccc(-c3ccccc3)cc2)cc1 | N |
| NS(=O)(=O)c1ccc(CCNC(=O)CN(CC(=O)NO)S(=O)(=O)c2ccc(Oc3ccccc3)cc2)cc1 | Y |

====

This section presents compounds with their documented Ki values.
Target: Carbonic anhydrase 9 (Homo sapiens)
Experiment: Inhibition of human recombinant CA9 catalytic domain by stopped-flow CO2 hydrase assay
Measurement Kind: Ki

| Molecular String | Result |
| --- | --- |
| NS(=O)(=O)c1ccc(CCNC(=O)CN(CC(=O)O)S(=O)(=O)c2ccc(Oc3ccccc3)cc2)cc1 | 6.4 nM |
| NS(=O)(=O)c1ccc(CCNC(=O)CN(CC(=O)O)S(=O)(=O)c2ccc(-c3ccccc3)cc2)cc1 | 3.8 nM |
| CC(C)[C@H](C(=O)NO)N(CC(=O)NCCc1ccc(S(N)(=O)=O)cc1)S(=O)(=O)c1ccc(Oc2ccccc2)cc1 | 3.3 nM |
| COc1ccc(S(=O)(=O)N(CC(=O)NO)CC(=O)NCCc2ccc(S(N)(=O)=O)cc2)cc1 | 13 nM |
